- method: total protein half-life in vivo (active degradation + dilution); higher = more stable protein
- condition_context: wild type E. coli NCM3722; growth: C-lim chemostat; doubling time 3 h
endpoint_name: total protein half-life in vivo (h)

MRWQGRRESDNVEDRRNSSGGPSMGGPGFRLPSGKGGLILLIVVLVAGYYGVDLTGLMTGQPVSQQQSTRSISPNEDEAAKFTSVILATTEDTWGQQFEKMGKTYQQPKLVMYRGMTRTGCGAGQSIMGPFYCPADGTVYIDLSFYDDMKDKLGADGDFAQGYVIAHEVGHHVQKLLGIEPKVRQLQQNATQAEVNRLSVRMELQADCFAGVWGHSMQQQGVLETGDLEEALNAAQAIGDDRLQQQSQGRVVPDSFTHGTSQQRYSWFKRGFDSGDPAQCNTFGKSI; 2.86
MGMIGYFAEIDSEKINQLLESTEKPLMDNIHDTLSGLRRLDIDKRWDFLHFGLTGTSAFDPAKNDPLSRAVLGEHSLEDGIDGFLGLTWNQELAATIDRLESLDRNELRKQFSIKRLNEMEIYPGVTFSEELEGQLFASIMLDMEKLISAYRRMLRQGNHALTVIVG; 1.89
MTMYATLEEAIDAAREEFLADNPGIDAEDANVQQFNAQKYVLQDGDIMWQVEFFADEGEEGECLPMLSGEAAQSVFDGDYDEIEIRQEWQEENTLHEWDEGEFQLEPPLDTEEGRAAADEWDER; 2.35

// data source = the supplement of paper PMC11246515
